Answer N if melting point is under 90 °C, and Y if it is 90 °C or more.

Answer whether melting point of `Clc1cccc(CSc2nnc(-c3ccccc3)c3ccccc23)c1` is greater than or equal to 90 °C. N

Is it the case that `Fc1ccc(CSc2nnc(-c3ccccc3)c3ccccc23)cc1` has melting point reaching or exceeding 90 °C? Y

Threshold query (melting point >= 90 °C) on `C=CCSc1nnc(-c2ccccc2)c2ccccc12` N

Is the recorded value of melting point equal to or greater than 90 °C for this compound? `CSc1nnc(-c2ccccc2)c2ccccc12` Y

Test whether the compound `CCSc1nnc(-c2ccccc2)c2ccccc12` records melting point of 90 °C or higher. Y

###

Kindly supply the reported inhibition at 100 µM values for the records listed here.
EXPERIMENTAL SYSTEM: purified cyclooxygenase Type 1 (COX I) (Ovis aries, UniProt P05979)
Construct: The COX I was purified from ram seminal vesicles; from tissue; host or cells: ram seminal vesicles
Sequence (P05979 25-600): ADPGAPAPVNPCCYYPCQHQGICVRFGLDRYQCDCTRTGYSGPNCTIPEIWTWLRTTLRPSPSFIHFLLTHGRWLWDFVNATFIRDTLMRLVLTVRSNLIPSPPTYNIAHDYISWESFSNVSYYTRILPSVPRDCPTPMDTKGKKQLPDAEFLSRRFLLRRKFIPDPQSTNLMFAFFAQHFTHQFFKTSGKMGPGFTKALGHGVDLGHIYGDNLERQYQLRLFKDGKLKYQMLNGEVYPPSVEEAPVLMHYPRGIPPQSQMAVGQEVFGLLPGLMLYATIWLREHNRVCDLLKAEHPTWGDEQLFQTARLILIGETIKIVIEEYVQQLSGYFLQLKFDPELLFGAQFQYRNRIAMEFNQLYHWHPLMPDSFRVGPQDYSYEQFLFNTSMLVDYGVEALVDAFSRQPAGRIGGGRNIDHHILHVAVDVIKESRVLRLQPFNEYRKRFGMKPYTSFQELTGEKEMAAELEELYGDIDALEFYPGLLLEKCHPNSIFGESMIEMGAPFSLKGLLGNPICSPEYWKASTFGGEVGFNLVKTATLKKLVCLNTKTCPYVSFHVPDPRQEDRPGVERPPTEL
EXPERIMENTAL PROTOCOL: Cyclooxygenase (COX I) inhibition, purified enzyme
Assay type: biochemical
CONDITION DESCRIPTION: 100 μM compound, arachidonic acid 100 μM, 2.0 min at 37° C., COX I from ram seminal vesicles
Numbers only here, please. The scale is %.

What inhibition at 100 µM value was documented for this compound, `C=CCSc1nnc(-c2ccccc2)c2ccccc12` ? 62

Need inhibition at 100 µM of `CSc1nnc(-c2ccccc2)c2ccccc12` , thanks. 73

Data request, read-out inhibition at 100 µM, for `c1ccc(CSc2nnc(-c3ccccc3)c3ccccc23)cc1` 30

For the compound `O=S(=O)(Cc1ccccc1)c1nnc(-c2ccccc2)c2ccccc12` , what inhibition at 100 µM is on record? 81

Query (compound): CSc1ccc(/C=C2/C(C)=C(CC(=O)O)c3cc(F)ccc32)cc1 [Sulindac sulfide, sulindac sulfide, reference compound] ; field requested: inhibition at 100 µM 97

###

Give measured inhibition at 100 µM for each item. Keep answers brief.
System: human colon carcinoma cell line, SW-480
EXPERIMENTAL PROTOCOL: Sulforhodamine B (SRB) tumor cell growth inhibition assay
Type: cell-based
CONDITION DESCRIPTION: Homo sapiens, SW480, 144 h, SW-480 cells, six days continuous exposure
Number in %, nothing else.

Record request: inhibition at 100 µM value, item `Clc1cccc(CSc2nnc(-c3ccccn3)c3ccccc23)c1` 88

Report inhibition at 100 µM for `Fc1ccc(CSc2nnc(-c3ccccc3)c3ccccc23)cc1` please. 76

Which inhibition at 100 µM is listed for `C=CCSc1nnc(-c2ccccc2)c2ccccc12` ? 87

Give its inhibition at 100 µM value. Item: `c1ccc(CSc2nnc(-c3ccccc3)c3ccccc23)cc1` 85

Endpoint output: inhibition at 100 µM of `Clc1cccc(CSc2nnc(-c3ccccc3)c3ccccc23)c1` . Value? 81

###

So I've got a bunch of compounds here, and I need their inhibition at 100 µM values.
EXPERIMENTAL SYSTEM: purified cyclooxygenase Type 1 (COX I) (Ovis aries)
Construct: The COX I was purified from ram seminal vesicles; from tissue; host or cells: ram seminal vesicles
EXPERIMENTAL PROTOCOL: Cyclooxygenase (COX I) inhibition, purified enzyme
Assay type: biochemical
CONDITION DESCRIPTION: 100 μM compound, arachidonic acid 100 μM, 2.0 min at 37° C., COX I from ram seminal vesicles

Any idea what inhibition at 100 µM was measured for `Clc1cccc(CSc2nnc(-c3ccccc3)c3ccccc23)c1` ? < 25%

What does the data say about its inhibition at 100 µM? Entry: `Fc1ccc(CSc2nnc(-c3ccccc3)c3ccccc23)cc1` < 25%

Name the reported inhibition at 100 µM value associated with the compound `Clc1cccc(CSc2nnc(-c3ccccn3)c3ccccc23)c1` < 25%
